emission maximum: recorded values
Experiment: solvent given as SMILES
Settings: in Cc1ccccc1
Your answer is read as nm, so omit the unit and give the number.

In the examples that follow, each entry is paired with its recorded emission maximum.
{"compound": "COc1ccc(-c2csc(-c3ccncc3)n2)cc1", "quantitative-result": 415}
{"compound": "COc1cc(OC)cc(C2=[O+][B-](F)(F)OC(c3ccc4ccccc4c3)=C2)c1", "quantitative-result": 492.31}
{"compound": "CN(C)c1ccc(/C=C2\\CC/C(=C\\c3ccc(N(C)C)cc3)C2=O)cc1", "quantitative-result": 482}
{"compound": "CCC1=C(C)C2=C(c3cc(C(=O)Cl)cc(C4=C5C(C)=C(CC)C(C)=[N+]5[B-](F)(F)n5c(C)c(CC)c(C)c54)c3)c3c(C)c(CC)c(C)n3[B-](F)(F)[N+]2=C1C", "quantitative-result": 562}
{"compound": "CCCCCCCCCCC1(CCCCCCCCCC)c2cc(-c3nc4ccccc4s3)ccc2-c2ccc(N3C(=O)c4ccc5c6ccc7c8c(ccc(c9ccc(c4c59)C3=O)c86)C(=O)N(c3ccc4c(c3)C(CCCCCCCCCC)(CCCCCCCCCC)c3cc(-c5nc6ccccc6s5)ccc3-4)C7=O)cc21", "quantitative-result": 536}
{"compound": "N#Cc1c(-n2c3ccccc3c3ccccc32)cccc1-n1c2ccccc2c2ccccc21", "quantitative-result": 403}
{"compound": "CN(C)c1ccc(-c2ccc3n2[B-](F)(F)[N+]2=C(c4ccccc4)C=CC2=C3C(F)(F)F)cc1", "quantitative-result": 746}
{"compound": "c1ccc(-c2nc(-c3ccccc3)nc(-c3ccc(-n4c5ccccc5c5cc(-n6c7ccccc7c7ccccc76)ccc54)c4c5ccccc5n(-c5ccccc5)c34)n2)cc1", "quantitative-result": 429}

Query string: Value lookup for emission maximum; key = CCCCCCCCCCCCn1nnc(-c2ccc(C#Cc3ccc(C#Cc4ccc(-c5nnn(CCCCCCCCCCCC)n5)cc4)c4nc5c6ccccc6c6ccccc6c5nc34)cc2)n1
Result string: 488

Query string: Similarly, CC(C)CCCCN1CCc2c1ccc1c3c(ccc21)C(=O)CCC3 ?
Result string: 452

Query string: Similarly, c1ccc2c(c1)c1ccccc1n2-c1ccc(-c2ccc(-c3ccc(-n4c5ccccc5c5ccccc54)nc3-n3c4ccccc4c4ccccc43)nn2)c(-n2c3ccccc3c3ccccc32)n1 ?
Result string: 400

Query string: Similarly, COC(=O)C(Cc1ccc2oc(-c3ccc(-n4c5ccccc5c5ccccc54)cc3)nc2c1)NC(=O)OC(C)(C)C (stereo not given) ?
Result string: 391.01

Query string: Similarly, COc1ccc(N(c2ccc(/C=C(\C)c3ccccc3)cc2)c2ccc(/C=C(\C)c3ccccc3)cc2)cc1 ?
Result string: 435

Query string: Similarly, O=S1(=O)c2ccccc2Oc2cc(N3c4ccccc4C4(c5ccccc53)c3ccccc3N(c3ccc5c(c3)Oc3ccccc3S5(=O)=O)c3ccccc34)ccc21 ?
Result string: 439.83

Query string: Similarly, C1=Nc2cccc3cccc(c23)N1 ?
Result string: 472
